target: hGLP1 receptor (Homo sapiens, UniProt P43220); construct: expressed in transfected cells; host or cells: HEK (human embryonic kidney) cells co-expressing hGLP1 receptor and CRE-Luciferase; assay: GLP-1 receptor agonism assay (HTRF cAMP, HEK cells co-expressing hGLP1 receptor and CRE-Luciferase); assay type: cell-based; conditions: Table 4, Ala-scan peptides, 0% HSA; read-out: pEC50 (converted)
Sequence (P43220 24-463): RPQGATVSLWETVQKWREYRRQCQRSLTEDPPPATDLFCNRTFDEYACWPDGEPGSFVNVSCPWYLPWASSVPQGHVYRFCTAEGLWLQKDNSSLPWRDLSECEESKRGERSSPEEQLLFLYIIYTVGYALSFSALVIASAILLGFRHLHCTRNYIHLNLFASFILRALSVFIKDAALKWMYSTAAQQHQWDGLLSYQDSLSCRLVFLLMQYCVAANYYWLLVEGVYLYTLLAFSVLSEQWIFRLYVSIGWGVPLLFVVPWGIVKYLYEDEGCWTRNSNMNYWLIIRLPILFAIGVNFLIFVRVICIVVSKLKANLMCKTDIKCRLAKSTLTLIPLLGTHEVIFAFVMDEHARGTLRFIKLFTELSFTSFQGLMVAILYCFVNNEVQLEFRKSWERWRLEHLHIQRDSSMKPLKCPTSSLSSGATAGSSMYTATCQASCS
Square brackets hold non-standard residues; d marks the D form. Peptide text beside a SMILES is read from it. Bip = N[C@@H](Cc1ccc(-c2ccccc2)cc1)C(=O)O; Phe(2-F) = N[C@@H](Cc1ccccc1F)C(=O)O; Aib = CC(C)(N)C(=O)O
Measured Quantity: EC50 (nM)
A number alone suffices; assume nM.

Worked examples, 3 compounds total:
Measured EC50 (hGLP1 receptor (Homo sapiens, UniProt P43220)), entry C[C@H](NC(=O)[C@@H](NC(=O)[C@H](Cc1ccccc1F)NC(=O)[C@@H](NC(=O)CNC(=O)[C@H](CCC(=O)O)NC(=O)C(C)(C)NC(=O)[C@@H](N)Cc1c[nH]cn1)[C@@H](C)O)[C@@H](C)O)C(=O)N[C@@H](CC(=O)O)C(=O)N[C@@H](Cc1ccc(-c2ccccc2)cc1)C(=O)N[C@@H](Cc1ccc(-c2ccccc2)cc1)C(N)=O [RXL-3006] (H-H[Aib]EGT[Phe(2-F)]TAD[Bip][Bip]-NH2) : 1.91

Response field EC50 (hGLP1 receptor (Homo sapiens, UniProt P43220)) for item C[C@H](NC(=O)CNC(=O)[C@H](CCC(=O)O)NC(=O)C(C)(C)NC(=O)[C@@H](N)Cc1c[nH]cn1)C(=O)N[C@@H](Cc1ccccc1F)C(=O)N[C@H](C(=O)N[C@@H](CO)C(=O)N[C@@H](CC(=O)O)C(=O)N[C@@H](Cc1ccc(-c2ccccc2)cc1)C(=O)N[C@@H](Cc1ccc(-c2ccccc2)cc1)C(N)=O)[C@@H](C)O [RXL-3004] (H-H[Aib]EGA[Phe(2-F)]TSD[Bip][Bip]-NH2) : 6.92

Known value: hGLP1 receptor (Homo sapiens, UniProt P43220) EC50 of the compound C[C@H](NC(=O)[C@H](Cc1ccccc1F)NC(=O)[C@@H](NC(=O)CNC(=O)[C@H](CCC(=O)O)NC(=O)C(C)(C)NC(=O)[C@@H](N)Cc1c[nH]cn1)[C@@H](C)O)C(=O)N[C@@H](CO)C(=O)N[C@@H](CC(=O)O)C(=O)N[C@@H](Cc1ccc(-c2ccccc2)cc1)C(=O)N[C@@H](Cc1ccc(-c2ccccc2)cc1)C(N)=O [RXL-3005] (H-H[Aib]EGT[Phe(2-F)]ASD[Bip][Bip]-NH2) equals 21.4

Now look at this entry.
Response field EC50 (hGLP1 receptor (Homo sapiens, UniProt P43220)) for item C[C@H](NC(=O)[C@H](CO)NC(=O)[C@@H](NC(=O)[C@H](Cc1ccccc1F)NC(=O)[C@@H](NC(=O)CNC(=O)[C@H](CCC(=O)O)NC(=O)C(C)(C)NC(=O)[C@@H](N)Cc1c[nH]cn1)[C@@H](C)O)[C@@H](C)O)C(=O)N[C@@H](Cc1ccc(-c2ccccc2)cc1)C(=O)N[C@@H](Cc1ccc(-c2ccccc2)cc1)C(N)=O [RXL-3007] (H-H[Aib]EGT[Phe(2-F)]TSA[Bip][Bip]-NH2) : 4.79

----------
biological target: hGLP1 receptor (Homo sapiens, UniProt P43220); construct: expressed in transfected cells; host or cells: HEK (human embryonic kidney) cells co-expressing hGLP1 receptor and CRE-Luciferase; assay: GLP-1 receptor agonism assay (HTRF cAMP, HEK cells co-expressing hGLP1 receptor and CRE-Luciferase); type: cell-based; details: versus respective parent analog
Square brackets hold non-standard residues; d marks the D form. Peptide text beside a SMILES is read from it. Bip = N[C@@H](Cc1ccc(-c2ccccc2)cc1)C(=O)O; Aib = CC(C)(N)C(=O)O
Measured Quantity: decreased potency (Aib/Ala comparison)

decreased potency (Aib/Ala comparison) reading for C[C@H](NC(=O)[C@@H](NC(=O)CNC(=O)[C@H](CCC(=O)O)NC(=O)C(C)(C)NC(=O)[C@@H](N)Cc1c[nH]cn1)[C@@H](C)O)C(=O)N[C@H](C(=O)N[C@@H](CO)C(=O)N[C@@H](CC(=O)O)C(=O)N[C@@H](Cc1ccc(-c2ccccc2)cc1)C(=O)N[C@@H](Cc1ccc(-c2ccccc2)cc1)C(N)=O)[C@@H](C)O [RXL-3038] (H-H[Aib]EGTATSD[Bip][Bip]-NH2) : > 1000 fold

----------
Biological target: hGLP1 receptor (Homo sapiens, UniProt P43220)
Construct: expressed in transfected cells; host or cells: HEK (human embryonic kidney) cells co-expressing hGLP1 receptor and CRE-Luciferase
Assay: GLP-1 receptor agonism assay (HTRF cAMP, HEK cells co-expressing hGLP1 receptor and CRE-Luciferase)
Format: cell-based
Settings: HEK293; Table 6 potency profile
Experimental: Human embryonic kidney cells (HEK) co-expressing the hGLP1 receptor and CRE-Luciferase construct were used to determine agonist potency in this assay. […] The optimal cell density was determined to be 1000 cells/well. […] The agonist assay was a homogeneous time-resolved fluorescence (HTRF) assay (Cisbio). […] The wells were incubated for 1 h at room temperature, and fluorescence was then read at 665 and 615 nm with an Envision reader with a TRF laser. […]
Square brackets hold non-standard residues; d marks the D form. Peptide text beside a SMILES is read from it. Bip = N[C@@H](Cc1ccc(-c2ccccc2)cc1)C(=O)O; αMePhe(2-F) = C[C@](N)(Cc1ccccc1F)C(=O)O; Phe(2-F) = N[C@@H](Cc1ccccc1F)C(=O)O; Aib = CC(C)(N)C(=O)O
Catalogue of molecules with associated Emax
Numeric answer only, unit % assumed.

Below, 9 molecules whose answers are already recorded.
The reported Emax value, hGLP1 receptor (Homo sapiens, UniProt P43220), for C[C@@H](O)[C@H](NC(=O)[C@](C)(Cc1ccccc1F)NC(=O)C(C)(C)NC(=O)CNC(=O)[C@H](CCC(=O)O)NC(=O)C(C)(C)NC(=O)[C@@H](N)Cc1c[nH]cn1)C(=O)N[C@@H](CO)C(=O)N[C@@H](CC(=O)O)C(=O)N[C@@H](Cc1ccc(-c2ccccc2)cc1)C(=O)N[C@@H](Cc1ccc(-c2ccccc2)cc1)C(N)=O [RXL-3033] (H-H[Aib]EG[Aib][αMePhe(2-F)]TSD[Bip][Bip]-NH2) reads 120

Hey, hGLP1 receptor (Homo sapiens, UniProt P43220) data for `C[C@@H](O)[C@H](NC(=O)CNC(=O)[C@H](CCC(=O)O)NC(=O)C(C)(C)NC(=O)[C@@H](N)Cc1c[nH]cn1)C(=O)N[C@@H](Cc1cccc(C(F)(F)F)c1)C(=O)N[C@H](C(=O)N[C@@H](CO)C(=O)N[C@@H](CC(=O)O)C(=O)N[C@@H](Cc1ccc(-c2ccccc2)cc1)C(=O)N[C@@H](Cc1ccc(-c2ccccc2)cc1)C(N)=O)[C@@H](C)O` : Emax came out at 109

Kindly note: hGLP1 receptor (Homo sapiens, UniProt P43220), `C[C@@H](O)[C@H](NC(=O)CNC(=O)[C@H](CCC(=O)O)NC(=O)C(C)(C)NC(=O)[C@@H](N)Cc1c[nH]cn1)C(=O)N[C@@H](Cc1cc(F)c(F)c(F)c1)C(=O)N[C@H](C(=O)N[C@@H](CO)C(=O)N[C@@H](CC(=O)O)C(=O)N[C@@H](Cc1ccc(-c2ccccc2)cc1)C(=O)N[C@@H](Cc1ccc(-c2ccccc2)cc1)C(N)=O)[C@@H](C)O` , Emax value reported: 113

Bench note, hGLP1 receptor (Homo sapiens, UniProt P43220): entry C[C@H](NC(=O)[C@@H](NC(=O)CNC(=O)[C@H](CCC(=O)O)NC(=O)C(C)(C)NC(=O)[C@@H](N)Cc1c[nH]cn1)[C@@H](C)O)C(=O)N[C@H](C(=O)N[C@@H](CO)C(=O)N[C@@H](CC(=O)O)C(=O)N[C@@H](Cc1ccc(-c2ccccc2)cc1)C(=O)N[C@@H](Cc1ccc(-c2ccccc2)cc1)C(N)=O)[C@@H](C)O [RXL-3038] (H-H[Aib]EGTATSD[Bip][Bip]-NH2) , its Emax = 37.4

Assay hGLP1 receptor (Homo sapiens, UniProt P43220), sample `C[C@@H](O)[C@H](NC(=O)CNC(=O)[C@H](CCC(=O)O)NC(=O)C(C)(C)NC(=O)[C@@H](N)Cc1c[nH]cn1)C(=O)N[C@@H](Cc1ccccc1C(F)(F)F)C(=O)N[C@H](C(=O)N[C@@H](CO)C(=O)N[C@@H](CC(=O)O)C(=O)N[C@@H](Cc1ccc(-c2ccccc2)cc1)C(=O)N[C@@H](Cc1ccc(-c2ccccc2)cc1)C(N)=O)[C@@H](C)O` , Emax read: 99.3

GET /values?item= C[C@@H](O)[C@H](NC(=O)C(C)(C)NC(=O)[C@H](CCC(=O)O)NC(=O)C(C)(C)NC(=O)[C@@H](N)Cc1c[nH]cn1)C(=O)N[C@@](C)(Cc1ccccc1F)C(=O)N[C@H](C(=O)N[C@@H](CO)C(=O)N[C@@H](CC(=O)O)C(=O)N[C@@H](Cc1ccc(-c2ccccc2)cc1)C(=O)N[C@@H](Cc1ccc(-c2ccccc2)cc1)C(N)=O)[C@@H](C)O [RXL-3032] (H-H[Aib]E[Aib]T[αMePhe(2-F)]TSD[Bip][Bip]-NH2) &system= hGLP1 receptor (Homo sapiens, UniProt P43220) returns Emax: 118

The molecule `C[C@@H](O)[C@H](NC(=O)CNC(=O)[C@H](CCC(=O)O)NC(=O)C(C)(C)NC(=O)[C@@H](N)Cc1c[nH]cn1)C(=O)N[C@@H](Cc1ccccc1[N+](=O)[O-])C(=O)N[C@H](C(=O)N[C@@H](CO)C(=O)N[C@@H](CC(=O)O)C(=O)N[C@@H](Cc1ccc(-c2ccccc2)cc1)C(=O)N[C@@H](Cc1ccc(-c2ccccc2)cc1)C(N)=O)[C@@H](C)O` , tested on hGLP1 receptor (Homo sapiens, UniProt P43220), showed Emax of 104

Result for C[C@H](NC(=O)[C@H](CCC(=O)O)NC(=O)C(C)(C)NC(=O)[C@@H](N)Cc1c[nH]cn1)C(=O)N[C@H](C(=O)N[C@@H](Cc1ccccc1F)C(=O)N[C@H](C(=O)N[C@@H](CO)C(=O)N[C@@H](CC(=O)O)C(=O)N[C@@H](Cc1ccc(-c2ccccc2)cc1)C(=O)N[C@@H](Cc1ccc(-c2ccccc2)cc1)C(N)=O)[C@@H](C)O)[C@@H](C)O [RXL-3037] (H-H[Aib]EAT[Phe(2-F)]TSD[Bip][Bip]-NH2) , tested on hGLP1 receptor (Homo sapiens, UniProt P43220), Emax: 73.8

Summary: `C[C@H](N)C(=O)NC(C)(C)C(=O)N[C@@H](CCC(=O)O)C(=O)NCC(=O)N[C@H](C(=O)N[C@@H](Cc1ccccc1F)C(=O)N[C@H](C(=O)N[C@@H](CO)C(=O)N[C@@H](CC(=O)O)C(=O)N[C@@H](Cc1ccc(-c2ccccc2)cc1)C(=O)N[C@@H](Cc1ccc(-c2ccccc2)cc1)C(N)=O)[C@@H](C)O)[C@@H](C)O` , hGLP1 receptor (Homo sapiens, UniProt P43220), Emax = 108

Consider the record given below.
Emax on hGLP1 receptor (Homo sapiens, UniProt P43220) for C[C@@H](O)[C@H](NC(=O)CNC(=O)[C@H](CCC(=O)O)NC(=O)C(C)(C)NC(=O)[C@@H](N)Cc1c[nH]cn1)C(=O)N[C@@](C)(Cc1ccccc1F)C(=O)N[C@H](C(=O)N[C@@H](CO)C(=O)NC(C)(C)C(=O)N[C@@H](Cc1ccc(-c2ccccc2)cc1)C(=O)N[C@@H](Cc1ccc(-c2ccccc2)cc1)C(N)=O)[C@@H](C)O [RXL-3036] (H-H[Aib]EGT[αMePhe(2-F)]TS[Aib][Bip][Bip]-NH2) is 96.7
